system: RARa homodimer (NR concentration 270 nM); assay: PBM binding z-score (relative to random genomic background probes); higher = stronger binding; sequences stand for … in GC…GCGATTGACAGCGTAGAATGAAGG
Classify on PBM binding z-score using range A = under 0.2, range B = from 0.2 up to 1, range C = 1 and over

Q) Tag the class for CATACAGGATCAGCTAGGCCAGAGTAGGGACGGC
A) range B

Q) Note: place this sequence into its band. Item: CCTCGGAGGACAGAAGGTCAGAGATGTCCGCTTT
A) range B

Q) Hello team, could you let me know which band the following sequence falls into: CGTCCAAGGTCAATGCTAGGTTAGTGAAAGCATT
A) range B

Q) // bin(item) where item = TCTGCTAGGTCAGTTGGTCGGCTAACGAGCTGCC
A) range A

Q) Bin? CCTGCTAGGTCAATGGTCCGCTAAAGCAGCTCGC
A) range A

Q) Which PBM binding z-score category applies to TCATATAGGTCATACAGGTGAAAGTCGGCATCTA here?
A) range C

Q) Class for TAACCTAGGTCATGGGCCAGTATACCACGCGAAC ?
A) range C

Q) Lab note: sort ATCGAAAGGTCGACGGTGAGTATACCCACCCGAA into the matching PBM binding z-score band.
A) range B

Q) Which bin, given its PBM binding z-score, does ATCTCTAGGTAAAGTTCAGTGCAAGATCGATAGA occupy?
A) range C

Q) Class (by measured PBM binding z-score) for GATACAGGGTCTAGGCCAGAGTACGCGTATTGAT
A) range A

Q) Which category fits this record: TCTATTAGTTGAAGGGCAACCGGCGAGTCCGTTT
A) range B

Q) Lab note: sort ACTCGGAGGACAAAGGTCAGAGGTACGCCAGTGA into the matching PBM binding z-score band.
A) range B

Q) Band of CGTCCAAGGTCCAGGTCAGTGAAAGAGACTCGAA ?
A) range A

Q) Which class holds CGTCCAAGGTCAGCAGGTTAGTGAAAGCGACGTG ?
A) range B

Q) Assign a category based on measured PBM binding z-score for TAGCCTAGGGCATTGGGCCAGTATAGTACGCATC and give only the class name.
A) range A

Q) State the class of the sequence shown: CTCGAAACGTCGGTTGAGGTGAGTATACGGATAA
A) range A

Q) Sort into band: CGTCCAAGGTCGGAGAGGTCAGTGAATGCCGAGT
A) range C

Q) # bin lookup: classify TCTCGGAGGACACGAAAGCTCAGAGCTCGACATC by its PBM binding z-score
A) range A

Q) Returns: class label. Input: AGAATGAGGTTAGACGTAGATCAGGGAAGAAAGT
A) range B

Q) Please let me know in which category the item AGTTAAAGTTCAGGACGAGGTAACGTAAAGCACG belongs.
A) range B

Q) // bin(item) where item = CAAAGTAGGTCAAAGGTCAAAGTCGAGCCAACCA
A) range C

Q) # bin lookup: classify TCTATTAGTTGAAGGGCATCCGACGAGTCCGTTT by its PBM binding z-score
A) range C

Q) Kindly state the category for this sequence: GGAACGAGGGCAAATTGATAGCAGAGTTTGATGG
A) range A

Q) Please let me know in which category the item ATATGTAGGTTATCGGGTCATTCACTTTGCGCAT belongs.
A) range C

Q) Returns: class label. Input: CCTTACGGGTGAAGGTTATAGCACGGGTGGTACG
A) range B

Values from the supplement of paper PMC6555819
